Test system: MDA-MB-435
Test: Compound was tested for inhibition of proliferation of MDA-435 cells
Assay type: functional, cell-based
Details: Homo sapiens
Please respond with reported IC50 for every item in the list.
One number for each entry, in µM.

Below: 6 molecules and their reported IC50.
record_smiles	measurement_label	observed
CNC(=O)C(=O)CCCCCCC(=O)Nc1ccc2cc[nH]c2c1	IC50	4.5
CNC(=O)C(=O)CCCCCCC(=O)Nc1nc(-c2ccncc2)cs1	IC50	2
CNC(=O)C(=O)CCCCCCC(=O)Nc1cccc(Oc2ccccc2)c1	IC50	39
CNC(=O)C(=O)CCCCCCC(=O)Nc1ccc2ccccc2c1	IC50	22
CNC(=O)C(=O)CCCCCCC(=O)Nc1nc(-c2ccc(OC)cc2)cs1	IC50	5.8
CNC(=O)C(=O)CCCCCCC(=O)Nc1nc(-c2ccc(CCN(C)C)cc2)cs1	IC50	0.16

Below are some molecules; for each one, tell me its IC50.
1. CNC(=O)C(=O)CCCCCCC(=O)Nc1nc2ccccc2s1
2. CNC(=O)C(=O)CCCCCCC(=O)Nc1cnc2ccccc2c1
3. CNC(=O)C(=O)CCCCCCC(=O)Nc1nc(-c2ccccc2)cs1

1: 14; 2: 4; 3: 3.1

###

What IC50 was measured for each of the following?
Target: Histone deacetylase (HDAC1 and HDAC2) (Homo sapiens, UniProt Q13547+Q92769)
Assay: Inhibitory activity against mixture of histone deacetylase 1 (HDAC1) and histone deacetylase 2 (HDAC2) from nuclear extraction of K562 erythroleukemia cells.
One number for each entry, in nM.

Past entries and their recorded results:
record_smiles	system_under_test	measurement_label	observed
CNC(=O)C(=O)CCCCCCOc1ccc(-c2ccccc2)cc1	Histone deacetylase (HDAC1 and HDAC2) (Homo sapiens, UniProt Q13547+Q92769)	IC50	0.11
CNC(=O)C(=O)CCCCCO/N=C\c1ccc(-c2ccccc2)cc1	Histone deacetylase (HDAC1 and HDAC2) (Homo sapiens, UniProt Q13547+Q92769)	IC50	853
CNC(=O)C(=O)CCCCCCC(=O)Nc1ccccc1	Histone deacetylase (HDAC1 and HDAC2) (Homo sapiens, UniProt Q13547+Q92769)	IC50	338

Hello, I would appreciate it if you could give IC50 for each entry below.
1. CNC(=O)C(=O)CCCCCCC(=O)Nc1ccc(-c2ccccc2)cc1
2. CNC(=O)C(=O)CCCCCCC(=O)Nc1ccc2cc[nH]c2c1
3. CNC(=O)C(=O)CCCCCCC(=O)Nc1ccc2ccccc2c1
4. O=C(O)C(=O)CCCCCCOc1ccc(-c2ccccc2)cc1
5. CNC(=O)C(=O)CCCCCCC(=O)Nc1nc(-c2ccccc2)cs1
6. CNC(=O)C(=O)CCCCCCC(=O)Nc1nc(-c2ccc(OC)cc2)cs1
7. CNC(=O)C(=O)CCCCCCC(=O)Nc1nc(-c2ccc(CCN(C)C)cc2)cs1

1. 201
2. 18
3. 9.4
4. 3.7
5. 11
6. 9.1
7. 3.1

List the reported IC50 of each compound below.
1. CNC(=O)C(=O)CCCCCCNC(=O)c1cccc(-c2ccccc2)c1
2. CNC(=O)C(=O)CCCCCCNS(=O)(=O)c1ccc(-c2ccccc2)cc1
3. CNC(=O)C(=O)CCCCCCC(=O)Nc1cccc(-c2ccccc2)c1

1. 21
2. 241
3. 3.7

###

Biological target: Histone deacetylase (HDAC1 and HDAC2) (Homo sapiens, UniProt Q13547+Q92769)
Assay: Inhibitory activity against mixture of histone deacetylase 1 (HDAC1) and histone deacetylase 2 (HDAC2) from nuclear extraction of K562 erythroleukemia cells.
Lab note - cut at 1 nM for IC50: 1 if strictly below, -1 if not.

Solved cases below.
record_smiles	qualitative_label
O=C(O)CNC(=O)C(=O)CCCCCCOc1ccc(-c2ccccc2)cc1	-1
CNC(=O)C(=O)COCCCCOc1ccc(-c2ccccc2)cc1	-1
CNC(=O)C(=O)CCCCCCS(=O)(=O)c1ccc(-c2ccccc2)cc1	-1
CNC(=O)C(=O)CCCCCCC(=O)Nc1cnc2ccccc2c1	-1
CN(C)C(=O)C(=O)CCCCCCOc1ccc(-c2ccccc2)cc1	-1

Turning to the following compound.
Report whether reported IC50 is lower than 1 nM (strictly) for `CNC(=O)C(=O)CCCCCCSc1ccc(-c2ccccc2)cc1`
-1
